Tested on: noncancerous African green monkey kidney epithelial cell line (Vero)
ASSAY REMARKS: Cell viability assay (neutral red), Vero
Type: cell-based
COND: Chlorocebus sabaeus, Vero, 24 h, inactive = viability >50% at >100 µM
MEASURE NAME: pIC50
Please report pIC50 as the negative decimal logarithm of the molar concentration, giving only the number.

## Task Name the reported pIC50 value associated with the molecule `C=CC(C)(C)c1cc2c(O)c3c(c(C(C)(C)C=C)c2oc1=O)OC(C)(C)C=C3`
## Result 4.11

* * *

Test system: human lung adenocarcinoma cell line (SK-LU-1)
ASSAY REMARKS: Cell viability assay (neutral red), SK-LU-1
Type: cell-based
COND: Homo sapiens, SK-LU-1; 24 h, neutral red; inactive = viability >50% at >100 µM
Listed next: entries and their corresponding pIC50.
Keep it numeric: pIC50 is minus log10 of the concentration in mol/L.

Some solved cases for reference:
[
  {
    "SMILES TEXT": "C=CC(C)(C)c1c2c(c(O)c3ccc(=O)oc13)C=CC(C)(C)O2",
    "READOUT VALUE": 4.17
  },
  {
    "SMILES TEXT": "C=CC(C)(C)c1c2c(c(OC)c3ccc(=O)oc13)C=CC(C)(C)O2",
    "READOUT VALUE": 4.34
  },
  {
    "SMILES TEXT": "CC(C)=CCc1c(O)c(C=O)cc2c1[nH]c1ccccc12",
    "READOUT VALUE": 4.08
  }
]

## Task Would you kindly share the measured pIC50 for `C=CC(C)(C)c1cc2c(O)c3c(c(C(C)(C)C=C)c2oc1=O)OC(C)(C)C=C3` ?
## Result 5.16

## Task # repeat for `COc1c2c(cc3oc(=O)ccc13)OC(C)(C)C=C2`
## Result 4.03
